- test_description: Proteolytic stability by incubation in human plasma at 37 °C (HPLC-MS)
- Format: in vitro ADME
- test_context: human, pooled human plasma, 8 h, read-out: Relative (peak area average vs 0 h)

{"compound": "N=C(N)NCCCC[C@H](N)C(=O)NCCCC[C@@H](N)C(=O)NCc1cn(Cc2cn([C@@H](CCCNC(=N)N)C(=O)O)nn2)nn1 [Compound 4, D-Lys(Har)-GlyΨ[Trl]GlyΨ[Trl]Arg]", "remaining at 8 h, 1.1 µmol/mL (%)": 99.4}
{"compound": "N=C(N)NCCCC[C@H](N)C(=O)NCCCC[C@H](N)C(=O)NCc1cn(Cc2cn([C@@H](CCCNC(=N)N)C(=O)O)nn2)nn1 [Compound 3, Lys(Har)-GlyΨ[Trl]GlyΨ[Trl]Arg]", "remaining at 8 h, 1.1 µmol/mL (%)": 91.3}

====

- test_description: in vitro
- test_context: mouse, cell viability (Muse Cell Analyser), single replicates

{"compound": "N=C(N)NCCCC[C@H](N)C(=O)NCCCC[C@@H](N)C(=O)NCc1cn(Cc2cn([C@@H](CCCNC(=N)N)C(=O)O)nn2)nn1 [Compound 4, D-Lys(Har)-GlyΨ[Trl]GlyΨ[Trl]Arg]", "viability at 24 h, 10 µM": "99%"}

====

- test_description: in vitro
- test_context: mouse, cell viability (Muse Cell Analyser), single replicates
observable: viability at 48 h, 100 µM (%)

{"compound": "N=C(N)NCCCC[C@H](N)C(=O)NCCCC[C@@H](N)C(=O)NCc1cn(Cc2cn([C@@H](CCCNC(=N)N)C(=O)O)nn2)nn1 [Compound 4, D-Lys(Har)-GlyΨ[Trl]GlyΨ[Trl]Arg]", "result_value": 99.2}

====

- test_description: Proteolytic stability by incubation in human plasma at 37 °C (HPLC-MS)
- Type: in vitro ADME
- test_context: human, pooled human plasma, 48 h, read-out: Relative (peak area average vs 0 h)
observable: remaining at 48 h, 1.1 µmol/mL (%)

{"compound": "N=C(N)NCCCC[C@H](N)C(=O)NCCCC[C@H](N)C(=O)NCc1cn(Cc2cn([C@@H](CCCNC(=N)N)C(=O)O)nn2)nn1 [Compound 3, Lys(Har)-GlyΨ[Trl]GlyΨ[Trl]Arg]", "result_value": 72.2}
{"compound": "N=C(N)NCCCC[C@H](N)C(=O)NCCCC[C@@H](N)C(=O)NCc1cn(Cc2cn([C@@H](CCCNC(=N)N)C(=O)O)nn2)nn1 [Compound 4, D-Lys(Har)-GlyΨ[Trl]GlyΨ[Trl]Arg]", "result_value": 91.8}

====

- test_description: Proteolytic stability by incubation in human plasma at 37 °C (HPLC-MS)
- Type: in vitro ADME
- test_context: human, pooled human plasma, 48 h, read-out: compound remained in the solution after 48 h of incubation
observable: remaining at 48 h, 1.1 µmol/mL

{"compound": "N=C(N)NCCCC[C@H](N)C(=O)NCCCC[C@H](N)C(=O)NCc1cn(Cc2cn([C@@H](CCCNC(=N)N)C(=O)O)nn2)nn1 [Compound 3, Lys(Har)-GlyΨ[Trl]GlyΨ[Trl]Arg]", "result_value": "~70%"}

====

- test_description: in vitro
- test_context: mouse, cell viability (Muse Cell Analyser), single replicates

{"compound": "N=C(N)NCCCC[C@H](N)C(=O)NCCCC[C@@H](N)C(=O)NCc1cn(Cc2cn([C@@H](CCCNC(=N)N)C(=O)O)nn2)nn1 [Compound 4, D-Lys(Har)-GlyΨ[Trl]GlyΨ[Trl]Arg]", "unit_symbol": "%", "viability at 24 h, 50 µM": 98.7}
